procedureText: NCI Yeast Anticancer Drug Screen. Data for the cln2 rad14 strain (AID 165);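 further: 0% = growth equal to vehicle treated cultures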
assaySetup: S. cerevisiae cln2 rad14 strain, at 50.0 µM (retest, dose inferred, filed as 5.0), stronger effect = higher value
About 79,000 compounds went through this panel and 15% of them were active in at least one assay; those are over-represented in the sample as a whole.
observedProperty: growth inhibition (%)
One number for each entry, in %.

compound=Nc1ccc(F)cc1S observedproperty="growth inhibition" valueobserved=88
compound=Cc1cc(=O)oc2c(C)c3occc(=O)c3cc12 observedproperty="growth inhibition" valueobserved=15
compound=CCN(CC)CCOc1cc(C)c2cc(Cc3ccccc3)ccc2n1 observedproperty="growth inhibition" valueobserved=-5
compound=COc1cc(/C=C2\CCC/C(=C\c3ccc(O)c(OC)c3)C2=O)ccc1O observedproperty="growth inhibition" valueobserved=6

Hey, can you go through the list below and give me growth inhibition for every item?
1. COc1cc([C@@H]2c3cc4c(cc3[C@H](OC3OC5COC(C(C)C)OC5C(O)C3O)C3COC(=O)[C@@H]32)OCO4)cc(OC)c1O (some centres not stated)
2. C[C](C)(C)[Ge]([O][Ge]([c]1ccccc1)[c]1ccccc1)([O][Ge]([c]1ccccc1)[c]1ccccc1)[C](C)(C)C
3. O=C(c1ccc([N+](=O)[O-])cc1)C1N=NCC1c1ccccc1 (configuration not stated)
4. CC(C)(C)N=C(NO)c1ccccc1
5. CCc1c(Cl)c(C)cc(O)c1Cl
6. Cc1cc(O)c(C(C)C)cc1C1(c2cc(C(C)C)c(O)cc2C)OC(=O)c2ccccc21
7. Cn1c(-c2ccc(/C=N\N3CCN(/N=C/c4ccc(-c5c[n+]6ccccc6n5C)cc4)CC3)cc2)c[n+]2ccccc12
8. CC(C)(C)[Si](C)(C)OCC1CCC(n2cnc3c(NC(=O)c4ccccc4)ncnc32)O1 (configuration not stated)

Result string:
9
82
27
49
44
97
69
30

# per-item lookup of growth inhibition; items listed below
1. c1ccc2[nH]c(-c3cscn3)nc2c1
2. COc1ccc([N+](=O)[O-])c2c(NCCCN(C)C)c3ccccc3nc12

Result string:
1: -24; 2: 98

List the reported growth inhibition of each compound below.
1. Nc1nc2ccc(NCc3ccc(C(=O)NC(CCC(=O)O)C(=O)O)cc3)cc2c(=O)[nH]1 (configuration not stated)
2. COC(=O)Nc1cn2ccc(C(Cl)=C(Cl)Cl)cc2n1
3. CCCC/C=C/C(C)(C(=O)OCC)C(=O)OCC
4. Cc1ccc(N=Nc2ccc(O)c(=O)cc2)cc1
5. O=c1ccc(=O)n(-c2ccccc2)[nH]1
6. O=c1ccc2ccccc2c2ccccc12
7. O=[N+]([O-])c1ccc2c(c1)/C(=N/N=C1c3ccccc3Cc3ccccc31)c1cc([N+](=O)[O-])cc([N+](=O)[O-])c1-2

Result string:
1. 25
2. 21
3. 32
4. 95
5. 79
6. 99
7. 97

----------
Provide the recorded growth inhibition for the entries that follow.
procedureText: NCI Yeast Anticancer Drug Screen. Data for the mec2-1 strain (AID 157)
assaySetup: S. cerevisiae mec2-1 strain, at 3.7 µM, stronger effect = higher value
The panel holds about 79,000 compounds, 15% with a hit somewhere; the sample as a whole holds those more often.
Answers are plain numbers, in %.

compound=CN(C)c1ccc2c(SCC(=O)OCC(=O)[C@@]3(O)CC[C@H]4[C@@H]5CCC6=CC(=O)C=C[C@]6(C)[C@H]5C(=O)C[C@@]43C)c3ccc(N(C)C)cc3nc2c1 valueobserved=-5
compound=CCOC(=O)/C(=C\c1ccc(C#N)cc1)C(C)=O valueobserved=-27
compound="CC(NCCN(C)C)C1CCC2C3CCc4cc(O)ccc4C3CCC12C (stereo not given)" valueobserved=5
compound=Clc1ccc2c(c1)N(CCCN1CCCC13CCCCC3)c1ccccc1S2 valueobserved=3
compound=O=C(Oc1ccc2c(c1)CN(Cc1ccccc1)CO2)c1ccccc1 valueobserved=0

For each entry beneath this line, provide reported growth inhibition.
1. CCN(CC)CCNc1ccc([N+](=O)[O-])c2nc3ccccc3c(N)c12
2. CC12C(=O)OC(=O)C(c3ccccc31)c1ccccc12
3. CC(=O)OCC(C)Cc1cc2c(cc1Br)OCO2 (stereo not given)
4. O=C1C(=O)c2ccccc2C(O)=C1C(C1=C(O)c2ccccc2C(=O)C1=O)c1ccc(Cl)cc1
5. Cc1cccc(/C=N/NC(=S)N2CCCC2)n1

Result string:
-23
-6
-4
18
-21
